# Study target: T1, human PD-L1 protein (soluble) (human, UniProt Q9NZQ7 19-239)
# T1 construct: also called PD-L1 (R&D Systems); His-tagged PD-L1 protein
# T1 sequence (Q9NZQ7 19-239 limits assumed): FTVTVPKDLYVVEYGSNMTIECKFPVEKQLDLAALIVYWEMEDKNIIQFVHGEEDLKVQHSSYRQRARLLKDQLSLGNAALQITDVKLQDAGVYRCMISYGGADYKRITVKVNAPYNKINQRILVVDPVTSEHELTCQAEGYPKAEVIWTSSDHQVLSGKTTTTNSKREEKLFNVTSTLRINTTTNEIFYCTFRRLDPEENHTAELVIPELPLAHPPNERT
# Assay method text: SPR, mAb captured on anti-human IgG Fc, PD-L1 as analyte;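 also: array SPR with mAb supernatants captured at several densities, PD-L1 injected for 5 min then 15 min dissociation, non-regenerative kinetic series, double-referenced against interspot surface and blank injection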
Measured kon by item
Value expressed in M⁻¹ s⁻¹; do not type the unit.

Known kon results, listed for orientation:
{"columns": ["Binder", "U", "kon"],
 "data": [
  ["antibody A1 (antibody, V domains shown, Tested as full-length mAb made in CHO cells; also called L1H1) VH: QVQLVQSGAEVKKPGASVKVSCKASGFTFTSYDINWVRQATGQGLEWMGWMHPNSGITGYAQKFQGRVTMTRNTSISTAYMELSSLSSEDTAVYFCARYYYVSGSYDYWGQGTLVTVSS VL: EIVMTQSPATLSLSPGERATLSCWASQSVSSSYLSWYQQKPGQAPRLLIYGASTRATGIPARFSGSGSGTDFTLTISSLQPEDFAVYYCQQDYNLPYTFGQGTKLEIK", "M⁻¹ s⁻¹", "1e+06"],
  ["antibody A21 (antibody, V domains shown, Tested as full-length mAb made in CHO cells; also called L21H21) VH: QVQLVESGGGVVQPGRSLRLSCAASGFTFSSYGMHWVRQAPGKGLEWVAVIWYDGSNKFYEDSVKGRFTISRDNSKNTLYLQMNSLRAEDTAVYYCARGGVNWNDVGYYYYGMDVWGQGTTVTVSS VL: DIQLTQSPPFLSASVGDRVTITCRASQGISSYLAWYQQKPGKAPKLLIYAASTLQSGVPSRFSGSGSGTEFTLTISSLQPEDFATYYCQQLNSYPFTFGQGTKLEIK", "M⁻¹ s⁻¹", 15000],
  ["antibody A4 (antibody, V domains shown, Tested as full-length mAb made in CHO cells; also called L4H4) VH: QVQLVESGGGVVQPGRSLRLSCAASGFTFSNYGMHWVRQAPGKGLEWVAVIWFDGNTKYYTDSVKGRFTISRDNSKNTLYLQMNSLRAEDTAVYYCARDITMVPMDVWGQGTTVTVSS VL: AIQMTQSPSSLSASVGDRVTITCRASQDIRNDLGWYQQQPGKAPKLLIYAASSLQSGVPSRFSGSGSGTDFTLTISSLQPEDFATYYCLQDYNYPPTFGQGTKVEIK", "M⁻¹ s⁻¹", 160000],
  ["antibody A17 (antibody, V domains shown, Tested as full-length mAb made in CHO cells; also called L17H17) VH: QVQLQESGPGLVKPSETLSLTCTVSGGSISGYSWSWIRQPPGKGLEWIGYIYYSGSTNNNPSLKSRVTISVDTSKNQFSLKLSSVTAADTAVYFCARDDGIAVAGYYFYYGLDVWGQGTTVTVSS VL: DIQMTQSPSSLSASVGDRVTITCRASQGIRNDLGWYQQKPGKAPKRLIYAASSLQSGVPSRFSGSGSGTEFTLTISSLQPEDFATYYCLQHNTYPWTFGQGTKVEIK", "M⁻¹ s⁻¹", 230000]
]}

In the following, a different binder is considered.
Sure, the documented kon for antibody A13 (antibody, V domains shown, Tested as full-length mAb made in CHO cells; also called L13H13) VH: QVQLQESGPGLVKPSETLSLTCTVSGGSISSYYWSWIRQPPGKGLEWIGYIHYSGSTKYNPSLKSRVTISLDTSKNQFSLKLSSVTAADTAVYYCARDRGIGAFDIWGQGTMVTVSS VL: EIVMTQSPATLSLSPGERATLSCRASQSVSSSYLSWYQQKPGQAPRLLIYGASTRATGIPARFSGSGSGTDFTLTISSLQPEDFAVYYCQQDYNLITFGQGTRLEIK is 310000

Hey, just so you know, these numbers are from patent US20220056137A1.
